Origin of the recorded values: ChEMBL document CHEMBL1201862

GI50 by entry:
# Test system: SNB-19
# Assay Details: NCI tumour cell line growth inhibition, 48 h
The source made the active and inactive calls. Cut-off read from the data, not from the text of the source: active = GI50 up to about 1.1 µM and inactive = higher.

Molecule	GI50
C/C(=N\N=C(/S)N1CC2CCC(CC2)C1)c1cccc[n+]1[O-]	9.08 µM (inactive)
O=C(CCN(CCO)CCO)Nc1ccc2c(c1)C(=O)c1ccc(NC(=O)CCN(CCO)CCO)cc1C2=O	22.5 µM (inactive)
O=c1/c(=C/c2ccccn2)sc2nc3cc4c(cc3n12)OCCO4	> 100 µM (inactive)
O=C1OC(C(O)C(O)C(O)CO)C(O)C1O (stereo not given)	> 100 µM (inactive)
C/C(=C1/N=C(c2cc([N+](=O)[O-])ccc2Cl)N(c2ccc(Br)cc2)C1=O)c1cc2ccccc2oc1=O	55.8 µM (inactive)
CC[C@](C)(O)C(=O)O[C@H]1C(=O)O[C@@H]2C[C@H]3C(C)=C[C@H](O)[C@@H](O)[C@]3(C)[C@H]3[C@@]4(O)OC[C@]32[C@@H]1[C@@H](C)[C@H]4O	9.79 µM (inactive)
Cc1nn(C(=O)c2ccccc2O)c2c1C(c1ccc(O)cc1O)SC(=N)N2 (stereo not given)	4.86 µM (inactive)
Nc1ccccc1S(=O)(=O)N(CC(=O)O)c1ccccc1	> 100 µM (inactive)
CCSc1c2ccccc2nc2c(OC)ccc(OC)c12	29.1 µM (inactive)
O=[N+]([O-])C(=C/c1ccccc1)/C(=C\c1ccccc1)[N+](=O)[O-]	18.2 µM (inactive)

###

# Tested on: SK-OV-3
# Assay Details: NCI tumour cell line growth inhibition, 48 h
Activity calls are given as the source filed them. No stated cut-off is given here; in the data, active = GI50 up to about 1.1 µM and inactive = higher. Peptide text beside a SMILES is read from it. * marks the point of attachment. Cbz = O=C(OCc1ccccc1)*; CH2Cl = ClC*
Outcomes: T for active, F for inactive

Molecule	Answer Label
O=C(CNc1nncs1)NO	F
COc1cc(Br)c(CC2C3=C(CCN2C(=O)C2CCC2)CC(=O)CC3)cc1O (stereo not given)	F
O=C1OC(C2Cc3ccccc3C2=O)c2ccccc21 (stereo not given)	F
C1=C(CC2=C[P+](c3ccccc3)(c3ccccc3)C=C(c3ccccc3)O2)OC(c2ccccc2)=C[P+]1(c1ccccc1)c1ccccc1	T
O=C1/C(=C/c2cccc(Br)c2)CCc2ccccc21	F
COC(=O)c1c(OC(C)=O)ccc2c1c1c(OC(C)=O)c3ccccc3c(OC(C)=O)c1n2Cc1ccccc1	F
CC(C)CC(NC(=O)OCc1ccccc1)C(=O)NC(Cc1ccccc1)C(=O)CCl (stereo not drawn) (Cbz-Leu-Phe-CH2Cl; configuration not given here)	F
COc1cc(O)c2c(c1)C(=O)C=C(Cl)C2=O	F
Nc1c(Cl)ncnc1NCCCCCCCCCCCCNc1ncnc(Cl)c1N	F
CCOC(=O)C12CCCC1(O)N(NC(=O)OC)C(C)=C2C(=O)OC (stereo not given)	F

###

# Tested on: CAKI-1
# Assay Details: NCI tumour cell line growth inhibition, 48 h
Active and inactive are the calls of the source. Rule as the data show it: active = GI50 up to about 1.1 µM and inactive = higher.

Compound	GI50
COc1c2c(cc3c1C(=O)Cc1ccc4c(c1CN(C)CC3)OCO4)OCO2	79.3 µM (inactive)
CSc1nc2[nH]c(=O)c(C)nc2c(=O)[nH]1	> 100 µM (inactive)
COc1cccc2c1[C@H]1OC(=O)NC1CCCCC2 (stereo partly specified)	> 100 µM (inactive)
COC(=O)C1SC[C@H]2C(=O)N(c3ccccc3)C(=O)N12 (stereo partly specified)	> 100 µM (inactive)
C/C(=N\N=C(/S)N1CC2CCC(CC2)C1)c1cccc[n+]1[O-]	9.14 µM (inactive)
CC1CCc2c(c(CC3CC(=O)NC(=O)C3)nn2-c2ccccc2)C1 (stereo unspecified)	> 100 µM (inactive)

###

# Tested on: SNB-19
# Assay Details: NCI tumour cell line growth inhibition, 48 h
Calls of active or inactive are those of the source. Rule as the data show it: active = GI50 up to about 1.1 µM and inactive = higher.
Readout Kind: GI50

Compound	Readout Kind	Recorded Result
COC(=O)NC(=O)c1cn(CCCOC(=O)CCCCCCCCC(=O)OCCCn2cc(C(=O)NC(=O)OC)c(=O)[nH]c2=O)c(=O)[nH]c1=O	GI50	42.4 µM (inactive)
CCOC(=O)C12CCCC1(O)N(NC(=O)OC)C(C)=C2C(=O)OC (centres undefined)	GI50	> 100 µM (inactive)
O=C(c1cccs1)N(C(=O)N1CCC(c2ccccc2)CC1)c1ccccc1	GI50	> 100 µM (inactive)
O=C(CCc1nnc2s/c(=C\c3ccccc3[N+](=O)[O-])c(=O)n12)Nc1cc(Cl)c(Cl)cc1Cl	GI50	30.1 µM (inactive)
C=C(C(=O)C(=O)Oc1ccc(Cl)cc1)C(=O)c1ccc(C)cc1	GI50	53.2 µM (inactive)
CC1=NN=C(N)N/C1=C\C(Sc1ccc(Cl)cc1)c1ccc([N+](=O)[O-])cc1 (centres undefined)	GI50	> 100 µM (inactive)
CSc1nc(NC2OCC(OC(C)=O)C(OC(C)=O)C2OC(C)=O)c2c(OC(C)=O)c(C)c(=O)oc2n1 (centres undefined)	GI50	> 100 µM (inactive)
Cc1ccc(-c2c(C#N)c(-c3ccc(N(C)C)cc3)c(C#N)c(=O)n2NS(=O)(=O)c2ccccc2)cc1	GI50	63.7 µM (inactive)
CNC(=O)CCCNC(=O)CCCCC(=O)N(C)C	GI50	> 100 µM (inactive)
Cc1c2cnccc2c(C)c2c1c1ccccc1n2CCCCCCNCc1ccccc1	GI50	1.88 µM (inactive)
COc1ccc(/C=c2\c(=O)[nH]c3nc4ccccc4c(=O)n23)cc1	GI50	> 100 µM (inactive)
CC1C(=O)CCC1C(Sc1ccccc1)(Sc1ccccc1)Sc1ccccc1 (centres undefined)	GI50	26.5 µM (inactive)
O=C(Sc1c(-c2ccccc2)c(=O)n(-c2ccccc2)c(=S)n1-c1ccccc1)c1ccc(Cl)cc1	GI50	> 100 µM (inactive)
O=C1N/C(=N/N=C/c2c[nH]c3ccccc23)N/C1=C\c1c[nH]c2ccccc12	GI50	69.7 µM (inactive)
CC(=O)OCC(OC(C)=O)C(OC(C)=O)C(OC(C)=O)C(=O)CNn1c(-c2ccccc2Cl)nc2ccc(Br)cc2c1=O (centres undefined)	GI50	81.1 µM (inactive)
O=c1cc(N=P(c2ccccc2)(c2ccccc2)c2ccccc2)n(-c2ccccc2)c(=O)n1-c1ccccc1	GI50	17.7 µM (inactive)
NC1=C(N2CCOCC2)C(=O)NC2=N/C(=C\c3ccccc3)C(=O)N21	GI50	> 100 µM (inactive)
CN(C)CCCN1c2ccc([N+](=O)[O-])cc2CCc2cc([N+](=O)[O-])ccc21	GI50	17.8 µM (inactive)
Cc1nc2c(nc1C)-c1[nH]c3c(c1C(=O)C2=O)CCCC3=O	GI50	2.33 µM (inactive)

###

Let's look at some compounds and their measured GI50.
# Tested on: RXF 393
# Assay Details: NCI tumour cell line growth inhibition, 48 h
Calls of active or inactive are those of the source. Cut-off read from the data, not from the text of the source: active = GI50 up to about 1.1 µM and inactive = higher. Where a SMILES comes first, the peptide text is derived from it. The star is where a group is joined. Fmoc = O=C(OCC1c2ccccc2-c2ccccc21)*; OBn = c1ccc(CO*)cc1; tBu = CC(C)(C)*
Readout Kind: GI50

Compound	Readout Kind	Recorded Result
O=C(O)c1cc2sc(C(=O)O)cc2s1	GI50	> 100 µM (inactive)
Nc1ccccc1S(=O)(=O)N(CC(=O)O)c1ccccc1	GI50	> 100 µM (inactive)
CCOP(=O)(OCC)/C(C#N)=C/c1cnc(C)[nH]1	GI50	> 100 µM (inactive)
C=C(C)[C@@H]1CCC2=C[C@H](C/C(C)=C\C3=CC(C)=C(O3)[C@H]1O)OC2=O	GI50	35.6 µM (inactive)
COc1ccc2c(=O)c3cc([N+](=O)[O-])ccc3n(C)c2c1	GI50	> 100 µM (inactive)
Cc1ccc(/N=N\c2c(O)c(S(=O)(=O)O)cc3cc(S(=O)(=O)O)ccc23)c(C)c1	GI50	> 100 µM (inactive)
COc1cccc(C2CC(=O)c3cccn32)c1 (centres undefined)	GI50	> 100 µM (inactive)
O=C1C(Cl)N(c2ccccc2)C1c1c[nH]c2ccccc12 (centres undefined)	GI50	> 100 µM (inactive)
CC(=O)OC1(C#N)CC2OC1C1NC21 (centres undefined)	GI50	> 100 µM (inactive)
N#Cc1nc(/C=C/c2ccccc2)oc1N	GI50	> 100 µM (inactive)
C=CCN1C(=O)/C(=C/c2ccco2)N=C1SC/C=C/C	GI50	29.2 µM (inactive)
CCOc1c(Br)cc(Br)cc1C=C(C#N)C#N	GI50	> 10 µM (inactive)
COC1=CC(=O)C2C(C1=O)[C@@H]1c3ccccc3OC[C@H]21 (some centres undefined)	GI50	> 100 µM (inactive)
CC[C@H]1CN(C)[C@H]2Cc3c([nH]c4ccccc34)C(=O)C[C@H]1C2C(=O)OC (some centres undefined)	GI50	> 100 µM (inactive)
CC1=C(C)C(=O)c2c(cc3ccc4ccccc4n23)C1=O	GI50	> 100 µM (inactive)
CC(=O)Nc1ccc(/N=N\c2c(O)c(S(=O)(=O)O)cc3cc(S(=O)(=O)O)ccc23)cc1	GI50	> 100 µM (inactive)
COC(OC)C1OC(CO)C(n2cc(F)c(=O)[nH]c2=O)C1O (centres undefined)	GI50	> 100 µM (inactive)
CCN(CC)c1ccc(/N=C2/C=CC(=O)c3ncccc32)c(C)c1	GI50	3.48 µM (inactive)
CC(OC(C)(C)C)C(NC(=O)OCC1c2ccccc2-c2ccccc21)C(=O)NC(Cc1ccccc1)C(=O)OCc1ccccc1 (centres undefined) (Fmoc-Thr(tBu)-Phe-OBn; configuration not given here)	GI50	> 100 µM (inactive)
